assay: molar heat capacity at constant pressure; details: 4 K; 101.33 kPa; Crystal; relaxation calorimetry
Property: molar heat capacity at constant pressure (J/K/mol)

# Molecule, Unit String, molar heat capacity at constant pressure
data = [
    ("OC[C@H](O)C(O)[C@@H](O)CO [L-(-)-arabitol]", "J/K/mol", 0.04172),
]

A = OC[C@@H](O)[C@@H](O)CO
B = O[C@H]1[C@H](O)[C@@H](O)[C@H](O)[C@@H](O)[C@H]1O [cis-1,2,3,5-trans-4,6-cyclohexanehexol]
Kindly compare A with B and tell me which has the lower molar heat capacity at constant pressure figure. In your reply, give the label of the chosen option.
A

A = OC[C@@H](O)C(O)[C@H](O)CO
B = OC[C@@H](O)[C@@H](O)[C@H](O)[C@H](O)CO
For this pair, A and B , which shows a numerically higher molar heat capacity at constant pressure? Give the chosen item's label as your response.
B
(B: 0.05872 J/K/mol, A: 0.04001 J/K/mol)

----------
assay: molar heat capacity at constant pressure; settings: 85 K; 101.33 kPa; Crystal; relaxation calorimetry
Property: molar heat capacity at constant pressure (J/K/mol)

# Compound, molar heat capacity at constant pressure [J/K/mol]
records = [
    ("OC[C@@H](O)C(O)[C@H](O)CO", 66.48),
    ("O[C@H]1[C@H](O)[C@@H](O)[C@H](O)[C@@H](O)[C@H]1O [cis-1,2,3,5-trans-4,6-cyclohexanehexol]", 59.15),
    ("OC[C@@H](O)[C@H](O)[C@@H](O)CO", 64.74),
    ("OC[C@@H](O)[C@@H](O)CO", 54.68),
    ("OC[C@@H](O)[C@@H](O)[C@H](O)[C@H](O)CO", 75.22),
    ("OC[C@H](O)C(O)[C@@H](O)CO [L-(-)-arabitol]", 66.8),
]

----------
assay: molar heat capacity at constant pressure; conditions: 5 K; 101.33 kPa; Crystal; relaxation calorimetry
Property: molar heat capacity at constant pressure (J/K/mol)

# Compound, Property, Measurement
data = [
    ("OC[C@@H](O)[C@@H](O)CO [meso-1,2,3,4-butanetetrol]", "molar heat capacity at constant pressure", 0.09724),
    ("OC[C@@H](O)[C@H](O)[C@@H](O)CO [xylitol]", "molar heat capacity at constant pressure", 0.1065),
    ("OC[C@H](O)C(O)[C@@H](O)CO [L-(-)-arabitol]", "molar heat capacity at constant pressure", 0.08452),
    ("OC[C@@H](O)C(O)[C@H](O)CO [D-arabitol]", "molar heat capacity at constant pressure", 0.08105),
]

P = OC[C@@H](O)[C@@H](O)[C@H](O)[C@H](O)CO [D-mannitol]
Q = O[C@H]1[C@H](O)[C@@H](O)[C@H](O)[C@@H](O)[C@H]1O [cis-1,2,3,5-trans-4,6-cyclohexanehexol]
Just tell me: smaller molar heat capacity at constant pressure value, P or Q ? // caller expects the label of the chosen entry
P

----------
settings: 310 K; 101.33 kPa; Crystal; Small sample (50 mg) DSC
Property: molar entropy (J/K/mol)

# Molecule, Unit String, molar entropy
records = [
    ("OC[C@@H](O)[C@H](O)[C@@H](O)CO", "J/K/mol", 206.47),
    ("O[C@H]1[C@H](O)[C@@H](O)[C@H](O)[C@@H](O)[C@H]1O [cis-1,2,3,5-trans-4,6-cyclohexanehexol]", "J/K/mol", 206.81),
    ("OC[C@@H](O)C(O)[C@H](O)CO", "J/K/mol", 207.75),
    ("OC[C@H](O)C(O)[C@@H](O)CO [L-(-)-arabitol]", "J/K/mol", 210.13),
    ("OC[C@@H](O)[C@@H](O)CO", "J/K/mol", 172),
    ("OC[C@@H](O)[C@@H](O)[C@H](O)[C@H](O)CO", "J/K/mol", 236.19),
]
